Hi there, I'd appreciate the recorded IC50 for every entry that follows.
Test system: Plasmodium falciparum
Experiment: Antiplasmodial activity against chloroquine resistant Plasmodium falciparum K1 infected in human erythrocytes incubated for 72 hrs by SYBR Green1-based fluorescence analysis
Type: functional, organism-based
Details: K1, 72 h

CC(C)c1ccc(-c2c(C(O)(CNc3ccc(Br)cc3)c3ccc(Cl)cc3)nnn2Cc2ccccc2)cc1 (stereo not drawn): 2.11 µM
OC(CNc1ccc(F)cc1)(c1ccc(Cl)cc1)c1nnn(Cc2ccccc2)c1-c1ccc(Br)cc1 (stereo not drawn): 3.23 µM
OC(CNc1ccc(Cl)cc1)(c1ccc(Cl)cc1)c1nnn(Cc2ccccc2)c1-c1ccc(F)cc1 (stereo not drawn): 2.06 µM

# batch: return IC50 for each of the 2 molecules below
1. Cc1ccc(NCC(O)(c2ccc(Cl)cc2)c2nnn(Cc3ccccc3)c2-c2ccccc2)cc1C (stereo not drawn)
2. OC(CNc1cccc2ccccc12)(c1ccc(Cl)cc1)c1nnn(Cc2ccccc2)c1-c1ccc(Cl)cc1 (stereo not drawn)

Key:
["2.7 µM", "1.23 µM"]

# batch: return IC50 for each of the 3 molecules below
1. OC(CNc1ccc(Br)cc1)(c1ccc(Cl)cc1)c1nnn(Cc2ccc(Br)cc2)c1-c1ccc(Cl)cc1 (stereo not drawn)
2. OC(CNc1ccc(Br)cc1)(c1ccc(Cl)cc1)c1nnn(Cc2ccccc2)c1-c1ccc(Cl)cc1 (stereo not drawn)
3. OC(CNc1ccccc1Br)(c1ccc(Cl)cc1)c1nnn(Cc2ccccc2)c1-c1ccc(F)cc1 (stereo not drawn)

Key:
1: 1.68 µM; 2: 1.41 µM; 3: 8.46 µM

----------
Hi there, I'd appreciate the recorded pIC50 for every entry that follows.
Test system: Plasmodium falciparum
Assay: Antiplasmodial activity against chloroquine resistant Plasmodium falciparum K1 infected in human erythrocytes incubated for 72 hrs by SYBR Green1-based fluorescence analysis
Type: functional, organism-based
Conditions: K1, 72 h
Give bare numbers, as −log10 of the molar value.

Take a look at these entries with their results.
OC(CNc1ccc(F)cc1)(c1ccc(Br)cc1)c1nnn(Cc2ccccc2)c1-c1ccccc1 (stereo not given): 5.34
CC(C)c1ccc(-c2c(C(O)(CNc3ccc(F)cc3)c3ccc(Cl)cc3)nnn2Cc2ccccc2)cc1 (stereo not given): 5.78
Cc1ccc(C(O)(CNc2ccc(C)c(C)c2)c2nnn(Cc3ccccc3)c2-c2ccc(Cl)cc2)cc1 (stereo not given): 5.57
OC(CNc1ccc(Br)cc1)(c1ccc(Cl)cc1)c1nnn(Cc2ccccc2)c1-c1ccccc1 (stereo not given): 5.73

Please examine the following record next.
The reported value for OC(CNc1ccc(Br)cc1)(c1ccc(Br)cc1)c1nnn(Cc2ccccc2)c1-c1ccccc1 (stereo not given) in terms of pIC50 is 6.30

----------
Experiment: Apparent oral clearance in Sprague-Dawley rat at 100 mg/kg, po after 0 to 48 hrs by LC-MS/MS analysis
Type: ADME, organism-based
Conditions: in vivo
experimental readout: CL/F
Give the number first and the unit second.

The reported value for CC(C)c1ccc(-c2c(C(O)(CNc3ccc(Br)cc3)c3ccc(Cl)cc3)nnn2Cc2ccccc2)cc1 (stereo unspecified) in terms of CL/F is 741 mL/min/kg

----------
Hi there, I'd appreciate the recorded pIC50 for every entry that follows.
System: Plasmodium falciparum
Assay: Antiplasmodial activity against chloroquine resistant Plasmodium falciparum K1 infected in human erythrocytes incubated for 72 hrs by SYBR Green1-based fluorescence analysis
Format: functional, organism-based
Conditions: K1, 72 h
Numbers only, as −log10 of the molar value.

OC(CNc1ccccc1Br)(c1ccc(Cl)cc1)c1nnn(Cc2ccccc2)c1-c1ccc(Br)cc1 (stereo not drawn): 5.06
OC(CNc1ccc2c(c1)OCO2)(c1ccc(Cl)cc1)c1nnn(Cc2ccccc2)c1-c1ccc(Cl)cc1 (stereo not drawn): 5.59

Please examine the following record next.
The reported value for OC(CNc1ccc(Br)cc1)(c1ccc(Cl)cc1)c1nnn(Cc2ccccc2)c1-c1ccc(Br)cc1 (stereo not drawn) in terms of pIC50 is 5.69

----------
System: Plasmodium falciparum
Test: Antiplasmodial activity against chloroquine resistant Plasmodium falciparum K1 infected in human erythrocytes incubated for 72 hrs by SYBR Green1-based fluorescence analysis
Type: functional, organism-based
Details: K1, 72 h
experimental readout: pIC50
Numbers only, as −log10 of the molar value.

OC(CNc1ccc(F)c(F)c1)(c1ccc(Cl)cc1)c1nnn(Cc2ccccc2)c1-c1ccc(Cl)cc1 (centres undefined): 6.30
OC(CNc1ccc(Br)cc1)(c1ccc(Cl)cc1)c1nnn(Cc2ccccc2)c1-c1ccc(F)cc1 (centres undefined): 5.70
OC(CNc1ccc(F)cc1)(c1ccc(Cl)cc1)c1nnn(Cc2ccccc2)c1-c1ccc(F)cc1 (centres undefined): 5.48
Cc1ccc(NCC(O)(c2ccc(Cl)cc2)c2nnn(Cc3ccccc3)c2-c2ccc(F)cc2)cc1C (centres undefined): 5.55
Cc1ccc(NCC(O)(c2ccc(Br)cc2)c2nnn(Cc3ccccc3)c2-c2ccccc2)cc1C (centres undefined): 5.46

# batch: return pIC50 for each of the 4 compounds below
1. OC(CNc1ccc(I)cc1)(c1ccc(Cl)cc1)c1nnn(Cc2ccccc2)c1-c1ccc(Cl)cc1 (centres undefined)
2. OC(CNc1ccc(F)cc1)(c1ccc(Cl)cc1)c1nnn(Cc2ccccc2)c1-c1ccccc1 (centres undefined)
3. COc1cc(NCC(O)(c2ccc(Cl)cc2)c2nnn(Cc3ccccc3)c2-c2ccc(Cl)cc2)ccc1Br (centres undefined)
4. Cc1ccc(NCC(O)(c2ccc(Cl)cc2)c2nnn(Cc3ccccc3)c2-c2ccc(Cl)cc2)cc1C (centres undefined)

Key:
1. 5.83
2. 5.45
3. 5.82
4. 5.50

----------
Test: Cmax in Sprague-Dawley rat at 100 mg/kg, po after 0 to 48 hrs by LC-MS/MS analysis
Format: ADME, organism-based
Parameters: dose 100 mg/kg, route oral
Details: in vivo
experimental readout: Cmax (ng/mL)
Answers are plain numbers, in ng/mL.

The reported value for CC(C)c1ccc(-c2c(C(O)(CNc3ccc(Br)cc3)c3ccc(Cl)cc3)nnn2Cc2ccccc2)cc1 (stereo unspecified) in terms of Cmax is 212

----------
Assay: Tmax in Sprague-Dawley rat at 100 mg/kg, po after 0 to 48 hrs by LC-MS/MS analysis
Assay type: ADME, organism-based
Conditions: in vivo
experimental readout: Tmax
Give the number first and the unit second.

The reported value for CC(C)c1ccc(-c2c(C(O)(CNc3ccc(Br)cc3)c3ccc(Cl)cc3)nnn2Cc2ccccc2)cc1 (stereo unspecified) in terms of Tmax is 4 h
